Biological target: STS in MCF-7 cells (Homo sapiens)
Construct: The radioisotope cellular assay was performed using the MCF-7 cell line; endogenous in cells
Test: radioisotope cellular assay with [3H]E1S in MCF-7 cells
Conditions: MCF-7 cells; substrate [3H]E1S, 3 nM
Could you please report measured pIC50 for the items listed next?
# pIC50 = -log10(concentration in molar units)

Exercise: Any idea what pIC50 was measured for `NS(=O)(=O)Oc1ccc(-c2cn(-c3cccc(F)c3)nn2)cc1` ?
Solution: 8.77

Exercise: Then this molecule: `NS(=O)(=O)Oc1ccc(-c2cn(-c3cc(Cl)cc(Cl)c3)nn2)cc1`
Solution: 8.77

Exercise: Then this molecule: `NS(=O)(=O)Oc1ccc(-c2cn(-c3ccc(F)c(F)c3F)nn2)cc1`
Solution: 8.53

Exercise: Then this molecule: `NS(=O)(=O)Oc1ccc(-c2cn(-c3cc(F)cc(F)c3)nn2)cc1`
Solution: 9.68

Exercise: Then this molecule: `NS(=O)(=O)Oc1ccc(-c2cn(-c3cccc(Cl)c3)nn2)cc1`
Solution: 8.72

* * *

Target: STS in MCF-7 cells (Homo sapiens, UniProt P08842)
Construct: The radioisotope cellular assay was performed using the MCF-7 cell line; endogenous in cells; host or cells: MCF-7
Sequence (P08842 22-583): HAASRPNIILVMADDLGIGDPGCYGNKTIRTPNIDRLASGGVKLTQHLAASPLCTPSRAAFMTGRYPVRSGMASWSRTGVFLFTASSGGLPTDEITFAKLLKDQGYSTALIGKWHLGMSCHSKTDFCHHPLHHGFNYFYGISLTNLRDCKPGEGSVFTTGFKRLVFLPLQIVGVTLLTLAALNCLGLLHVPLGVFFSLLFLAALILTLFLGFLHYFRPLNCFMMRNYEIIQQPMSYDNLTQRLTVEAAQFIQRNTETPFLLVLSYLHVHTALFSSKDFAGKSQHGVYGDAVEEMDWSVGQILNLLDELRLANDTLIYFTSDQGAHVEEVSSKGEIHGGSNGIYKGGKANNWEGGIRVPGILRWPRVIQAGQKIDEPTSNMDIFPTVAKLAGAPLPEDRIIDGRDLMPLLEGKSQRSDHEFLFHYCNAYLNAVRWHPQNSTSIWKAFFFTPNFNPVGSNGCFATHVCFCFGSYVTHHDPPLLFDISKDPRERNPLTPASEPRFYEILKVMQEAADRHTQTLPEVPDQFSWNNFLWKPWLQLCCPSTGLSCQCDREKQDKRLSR
Assay: radioisotope cellular assay with [3H]E1S in MCF-7 cells
Assay type: cell-based
Conditions: MCF7, 20 h, MCF-7 cells; 100 nM inhibitor; substrate [3H]E1S, 3 nM; triplicate; read-out: residual STS activity [%] 100 nM
Could you please report measured remaining activity at 0.1 µM for the items listed next?
Quick note: give the figure in %, leave out the unit.

Exercise: Any idea what remaining activity at 0.1 µM was measured for `NS(=O)(=O)Oc1ccc(-c2cn(-c3ccc(F)cc3)nn2)cc1` ?
Solution: 1.5

Exercise: Then this molecule: `COc1cccc(-n2cc(-c3ccc(OS(N)(=O)=O)cc3)nn2)c1`
Solution: 6.8

Exercise: Then this molecule: `NS(=O)(=O)Oc1ccc(-c2cn(-c3cccc([N+](=O)[O-])c3)nn2)cc1`
Solution: 5.9

Exercise: Then this molecule: `NS(=O)(=O)Oc1ccc(-c2cn(-c3ccccc3)nn2)cc1`
Solution: 1.5

Exercise: Then this molecule: `COc1cc(OC)cc(-n2cc(-c3ccc(OS(N)(=O)=O)cc3)nn2)c1`
Solution: 34.3

Exercise: Then this molecule: `Cc1cc(C)cc(-n2cc(-c3ccc(OS(N)(=O)=O)cc3)nn2)c1`
Solution: 10.2

Exercise: Then this molecule: `NS(=O)(=O)Oc1ccc(-c2cn(-c3ccc(F)c(F)c3)nn2)cc1`
Solution: 3

Exercise: Then this molecule: `NS(=O)(=O)Oc1ccc(-c2cn(-c3ccccc3OC(F)(F)F)nn2)cc1`
Solution: 15.5

* * *

Experiment: blood morphology, blood biochemistry and organ weights of mice with 67NR tumor
Conditions: Table S2, mice with 67NR tumor, 50 mg/kg
result-type: PLT

Exercise: Any idea what PLT was measured for `NS(=O)(=O)Oc1ccc(-c2cn(-c3cccc(Cl)c3)nn2)cc1` ?
Solution: 503,3±59,8 x103/uL

Exercise: Then this molecule: `NS(=O)(=O)Oc1ccc(-c2cn(-c3cc(F)cc(F)c3)nn2)cc1`
Solution: 463,1±74 x103/uL

Exercise: Then this molecule: `NS(=O)(=O)Oc1ccc(-c2cn(-c3cccc(F)c3)nn2)cc1`
Solution: 508,6±69 x103/uL

Exercise: Then this molecule: `NS(=O)(=O)Oc1ccc(-c2cn(-c3cc(Cl)cc(Cl)c3)nn2)cc1`
Solution: 512,2±72,3 x103/uL
